Parameter: IC50. Scope: all listed entries.
# System: Voltage-dependent T-type calcium channel subunit alpha-1H (Homo sapiens) (UniProt O95180)
# Sequence (O95180 whole entry, looked up): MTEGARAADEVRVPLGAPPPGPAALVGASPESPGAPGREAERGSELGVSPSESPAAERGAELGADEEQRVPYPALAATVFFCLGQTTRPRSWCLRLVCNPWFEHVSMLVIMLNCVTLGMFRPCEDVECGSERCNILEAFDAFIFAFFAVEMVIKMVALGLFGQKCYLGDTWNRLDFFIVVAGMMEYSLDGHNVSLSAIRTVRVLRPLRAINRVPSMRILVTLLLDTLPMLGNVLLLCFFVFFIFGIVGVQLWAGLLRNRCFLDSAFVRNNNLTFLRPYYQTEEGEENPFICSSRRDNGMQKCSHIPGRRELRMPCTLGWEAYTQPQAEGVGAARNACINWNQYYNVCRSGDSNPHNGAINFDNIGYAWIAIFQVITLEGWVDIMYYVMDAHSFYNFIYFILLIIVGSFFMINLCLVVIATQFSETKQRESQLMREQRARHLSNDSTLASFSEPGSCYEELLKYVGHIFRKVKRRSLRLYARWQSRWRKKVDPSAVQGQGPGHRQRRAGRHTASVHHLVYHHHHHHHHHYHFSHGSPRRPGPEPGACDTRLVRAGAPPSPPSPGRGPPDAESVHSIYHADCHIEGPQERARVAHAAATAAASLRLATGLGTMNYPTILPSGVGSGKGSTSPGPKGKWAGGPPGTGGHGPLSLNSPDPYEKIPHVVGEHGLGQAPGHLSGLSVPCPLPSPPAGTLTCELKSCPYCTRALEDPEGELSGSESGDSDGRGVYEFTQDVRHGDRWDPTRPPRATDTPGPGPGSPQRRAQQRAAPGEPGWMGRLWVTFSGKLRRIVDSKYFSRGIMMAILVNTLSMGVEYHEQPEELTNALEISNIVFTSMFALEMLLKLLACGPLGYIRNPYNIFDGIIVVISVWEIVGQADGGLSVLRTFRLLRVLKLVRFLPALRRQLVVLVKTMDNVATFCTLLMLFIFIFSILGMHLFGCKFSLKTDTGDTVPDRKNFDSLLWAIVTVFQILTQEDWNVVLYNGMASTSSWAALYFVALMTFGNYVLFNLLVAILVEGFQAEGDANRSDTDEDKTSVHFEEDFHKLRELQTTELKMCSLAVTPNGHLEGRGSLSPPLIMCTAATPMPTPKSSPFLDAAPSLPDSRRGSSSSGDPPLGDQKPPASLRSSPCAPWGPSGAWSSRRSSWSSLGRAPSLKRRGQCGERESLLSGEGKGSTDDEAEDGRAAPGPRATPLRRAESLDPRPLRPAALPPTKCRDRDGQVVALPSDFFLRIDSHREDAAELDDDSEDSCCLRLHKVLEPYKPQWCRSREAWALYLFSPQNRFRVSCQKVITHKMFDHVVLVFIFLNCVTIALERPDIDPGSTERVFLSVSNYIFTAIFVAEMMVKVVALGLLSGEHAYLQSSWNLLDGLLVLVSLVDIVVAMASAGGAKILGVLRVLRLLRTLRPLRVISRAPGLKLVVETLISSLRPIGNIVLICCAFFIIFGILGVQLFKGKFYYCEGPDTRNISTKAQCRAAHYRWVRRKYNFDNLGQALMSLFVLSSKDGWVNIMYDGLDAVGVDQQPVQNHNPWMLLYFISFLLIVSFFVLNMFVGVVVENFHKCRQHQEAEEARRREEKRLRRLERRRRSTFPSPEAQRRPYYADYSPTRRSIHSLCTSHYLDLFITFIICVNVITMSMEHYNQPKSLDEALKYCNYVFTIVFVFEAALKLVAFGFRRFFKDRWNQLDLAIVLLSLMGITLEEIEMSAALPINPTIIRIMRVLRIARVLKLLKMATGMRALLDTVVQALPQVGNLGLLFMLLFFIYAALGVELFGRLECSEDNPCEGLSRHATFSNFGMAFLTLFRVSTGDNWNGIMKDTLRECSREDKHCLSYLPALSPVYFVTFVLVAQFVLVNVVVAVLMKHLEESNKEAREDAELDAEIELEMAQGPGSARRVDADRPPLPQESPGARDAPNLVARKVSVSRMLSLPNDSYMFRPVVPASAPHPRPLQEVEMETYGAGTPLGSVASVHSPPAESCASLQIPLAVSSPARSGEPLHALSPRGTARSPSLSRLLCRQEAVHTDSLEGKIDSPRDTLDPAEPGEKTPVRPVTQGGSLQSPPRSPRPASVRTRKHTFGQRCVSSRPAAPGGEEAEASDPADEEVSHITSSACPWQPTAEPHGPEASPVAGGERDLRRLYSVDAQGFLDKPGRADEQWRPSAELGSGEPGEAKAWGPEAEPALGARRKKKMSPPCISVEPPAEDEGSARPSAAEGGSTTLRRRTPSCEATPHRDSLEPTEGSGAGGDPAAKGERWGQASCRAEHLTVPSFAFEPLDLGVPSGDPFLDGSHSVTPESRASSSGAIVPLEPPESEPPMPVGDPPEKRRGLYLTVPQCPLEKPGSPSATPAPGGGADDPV
# Method notes: Cav3.2 T-type calcium channel inhibitors, dose response, mechanism study, automated patch clamp, HEK293 cells (AID 504426)
# Condition context: Cav3.2-HEK293, automated patch clamp peak current

Compound | System | Result
CC(C)(C)CCN1C[C@@H]2C(CNC(=O)c3cc(Cl)cc(Cl)c3)[C@@H]2C1 (some centres not stated) | Voltage-dependent T-type calcium channel subunit alpha-1H (Homo sapiens) (UniProt O95180) | 0.31 µM

Next, consider the following compound.
Q. Find the recorded IC50 belonging to O=C(COc1ccc(F)cc1Cl)Nc1nnc(-c2ccc(F)c(F)c2)o1 and report it.
A. 13.5 µM
